Here, each record is paired with measured Kd data.
- assayed.system: T1, TnMUC1 peptide (fully glycosylated), biotinylated
- T1 construct: Two batches (36-2 and 65-1) of the same peptide; also called 36-2; 7-36-2
- test.details: SPR (Biacore T200): biotinylated TnMUC1 peptide batch 65-1 captured on CAP chip, scFv as analyte, 1:1 fit, average
Just the number in nM, nothing appended.

Some solved entries appear below for comparison.
# binder, Kd, nM
measured = [
    ("humanised anti-TnMUC1 scFv protein 13P16 (97A), L2-H3 (scFv, Supernatant of construct 6D16 in the Octet assay; purified 13P16 elsewhere. scFv of CAR MB024; also called 6D16) scFv: DIVMTQSPDSLAVSLGERATINCKSSQSLLNSGDQKNYLTWYQQKPGQPPKLLIFWASTRESGVPDRFSGSGSGTDFTLTISSLQAEDVAVYYCQNDYSYPLTFGQGTKLEIKGGGGSGGGGSGGGGSGGGGSQVQLVQSGAEVKKPGSSVKVSCKASGYTFTDHAIHWVRQAPGQGLEWMGHFSPGNTDIKYNDKFKGRVTITADKSTSTAYMELSSLRSEDTAVYYCKTSTFFFDYWGQGTTVTVSSAAAHHHHHH", 195),
    ("humanised anti-TnMUC1 scFv protein 13P18 (19A), L2-H5 (scFv, Supernatant of construct 6D18 in the Octet assay; purified 13P18 elsewhere. scFv of CAR MB025; also called 6D18) scFv: DIVMTQSPDSLAVSLGERATINCKSSQSLLNSGDQKNYLTWYQQKPGQPPKLLIFWASTRESGVPDRFSGSGSGTDFTLTISSLQAEDVAVYYCQNDYSYPLTFGQGTKLEIKGGGGSGGGGSGGGGSGGGGSQVQLVQSGAEVKKPGSSVKVSCKASGYTFTDHAIHWVRQAPGQGLEWIGHFSPGNTDIKYNDKFKGRATLTVDRSTSTAYMELSSLRSEDTAVYFCKTSTFFFDYWGQGTTVTVSSAAAHHHHHH", 40.7),
    ("humanised anti-TnMUC1 scFv protein 16P4 (82A), L0-H3 (scFv, Supernatant of construct 6D4 in the Octet assay; purified 16P4 elsewhere. scFv of CAR MB021; also called 6D4) scFv: DIVMTQSPDSLAVSLGERATINCKSSQSLLNSGDQKNYLTWYQQKPGQPPKLLIYWASTRESGVPDRFSGSGSGTDFTLTISSLQAEDVAVYYCQNDYSYPLTFGQGTKLEIKGGGGSGGGGSGGGGSGGGGSQVQLVQSGAEVKKPGSSVKVSCKASGYTFTDHAIHWVRQAPGQGLEWMGHFSPGNTDIKYNDKFKGRVTITADKSTSTAYMELSSLRSEDTAVYYCKTSTFFFDYWGQGTTVTVSSAAAHHHHHH", 208),
]

Note: attention shifts to another entry.
Value of Kd reported for the binder humanised anti-TnMUC1 scFv protein 11P6 (89A), L0-H5 (scFv, Supernatant of construct 6D6 in the Octet assay; purified 11P6 elsewhere; also called 6D6) scFv: DIVMTQSPDSLAVSLGERATINCKSSQSLLNSGDQKNYLTWYQQKPGQPPKLLIYWASTRESGVPDRFSGSGSGTDFTLTISSLQAEDVAVYYCQNDYSYPLTFGQGTKLEIKGGGGSGGGGSGGGGSGGGGSQVQLVQSGAEVKKPGSSVKVSCKASGYTFTDHAIHWVRQAPGQGLEWIGHFSPGNTDIKYNDKFKGRATLTVDRSTSTAYMELSSLRSEDTAVYFCKTSTFFFDYWGQGTTVTVSSAAAHHHHHH is 48.6
